- Experiment Notes: Toxicity in human C8166 cells assessed as reduction in cell viability incubated for 72 hrs by MTT assay
- Format: cell-based
- Run Parameters: read-out: TD50
Readout Type: CC50 at 72 h (µg/mL)
Answers are plain numbers, in µg/mL.

Consider the following illustrative entries.
Reported CC50 at 72 h for CCCCOc1nc(Cc2ccc(OC)cc2)cc(=O)[nH]1 was 100

For this compound ( COc1ccc(Cc2cc(N)nc(OC)n2)cc1 ), measured CC50 at 72 h is 50

Further cases:
Entry COc1ccc(C(Cl)(Cl)c2cc(Cl)nc(OC)n2)cc1 ; CC50 at 72 h = 25

###

- Test system: Hepatitis B virus
- Experiment Notes: Antiviral activity against Hepatitis B virus infected in human HepG2.2.15 cells assessed as inhibition of HBV DNA production by qRT-PCR analysis
- Type: functional, organism-based
Readout Type: EC50 (nM)
Give bare numbers, in nM.

EC50 measured on O=c1[nH]c(SC2O[C@H](CO)[C@H](O)[C@@H](O)[C@@H]2O)nc(Cc2ccccc2)c1Cc1ccccc1 (some centres not stated) = 200

// switching to the query molecule
Sample O=c1[nH]c(SC2OC[C@H](O)[C@@H](O)[C@@H]2O)nc(Cc2ccccc2)c1Cc1ccccc1 (some centres not stated) ; EC50 observed: 200

###

- Experiment Notes: Selectivity index, ratio of CC50 for human MT4 cells to EC50 for antiviral activity against HIV1 infected in human MT4 cells
- Type: toxicity, cell-based
- Run Parameters: read-out: Ratio CC50/EC50
Readout Type: selectivity ratio

Some entries whose results are on file:
Documented selectivity ratio of CCC(C)Sc1nc(O)cc(C(C)c2c(F)cccc2F)n1 (stereo unspecified) : > 6670

The compound listed as Cc1c(O)nc(SC2CCCC2)nc1Cc1ccccc1 shows selectivity ratio equal to > 555

The recorded selectivity ratio for entry Cc1c(O)nc(SCC(C)C)nc1C(C)c1c(F)cccc1F (stereo unspecified) equals 28600

Entry Cc1c(Cc2c(Cl)cccc2Cl)nc(SCC(=O)Nc2ccc(Cl)cc2)[nH]c1=O ; selectivity ratio = > 836

// selectivity ratio value for Cc1c(Cc2c(Cl)cccc2Cl)nc(SCC(=O)Nc2ccc(Br)cc2)[nH]c1=O : > 1330

Switching to the query record.
So, Cc1c(O)nc(SCC(C)C)nc1Cc1ccccc1 ? Its selectivity ratio was 162

###

- Experiment Notes: Solubility in water
- Format: physicochemical
Readout Type: solubility (µM)
Numbers only, in µM.

Entry CCc1c(CC2CCCCC2)nc(SCC(=O)c2ccc(OP(=O)(OC)OC)cc2)[nH]c1=O , solubility reported as 6.4

###

- Test system: Human immunodeficiency virus 1
- Experiment Notes: Antiviral activity against HIV-1 harboring RT K103N mutant infected in human MT4 cells assessed as protection against virus-induced cytopathic effect measured for 5 days by MTT assay
- Type: functional, organism-based
- Run Parameters: Human immunodeficiency virus 1, MT4, 120 h
For each of the compounds below, state its pEC50.
Numbers only, as −log10 of the molar value.

Kindly note the recorded pEC50 for O=C1c2ccccc2C(=O)N1CCSc1nc(Cc2c(F)cccc2F)cc(=O)[nH]1 , which is 4.00

Proceed to the following item.
Entry Cc1cc(=O)[nH]c(SCCN2C(=O)c3ccccc3C2=O)n1 , pEC50 reported as 5.72

###

- Experiment Notes: Selectivity index, ratio of CC50 for cytotoxicity against human MT2 cells to EC50 for antiviral activity against HIV-1 IIIB infected in human MT2 cells
- Assay type: toxicity, cell-based
- Run Parameters: read-out: Ratio CC50/EC50
Please respond with reported selectivity ratio for every item in the list.

Parameters: items (list). Returns: selectivity ratio for each item.
1. CCC(C)Sc1nc(O)c(C)c(Cc2c(Cl)cccc2Cl)n1 (stereo unspecified)
2. CC(C)CCSc1nc(Cc2c(F)cccc2F)cc(=O)[nH]1
3. CCC(C)Sc1nc(O)cc(Cc2c(F)cccc2F)n1 (stereo unspecified)
4. CC(C)CCSc1nc(Cc2c(F)cccc2I)cc(=O)[nH]1
5. CCC(C)Sc1nc(O)cc(Cc2c(Cl)cccc2Cl)n1 (stereo unspecified)
6. CCC(C)Sc1nc(Cc2c(F)cccc2I)cc(=O)[nH]1 (stereo unspecified)

// result
["> 4000", "> 4000", "> 5000", "> 4000", "> 1430", "> 4000"]

###

- Assayed Target: Human immunodeficiency virus type 1 reverse transcriptase (Human immunodeficiency virus 1, UniProt Q72547)
Readout Type: Ki (nM)
One number for each entry, in nM.

Looking up Cc1c(C(C)c2c(F)cccc2Cl)nc(N(C)C)[nH]c1=O (stereo unspecified) , I found its Ki recorded as 17

###

Give IC50 for every item shown.
- Assayed Target: UniProt Q72547
- Experiment Notes: Inhibition of recombinant HIV-1 reverse transcriptase associated RNA-dependent DNA polymerase activity
Answers are plain numbers, in µM.

Form: molecule = Cc1ccccc1Cc1nc(SC2CCCCC2)[nH]c(=O)c1C ; IC50 = 1.3

Others:
Short answer for CCC(C)Oc1nc(N)cc(S(=O)(=O)c2cccc(C)c2)n1 (configuration not stated) : IC50 was 26.5

###

- Tested on: dengue virus type 1
- Experiment Notes: Antiviral activity Dengue virus 1
- Format: functional, organism-based
Give pEC50 for every item shown.
One number for each entry, as −log10 of the molar value.

Data point: CCc1c(CC2CCCCC2)nc(SCc2n[nH]c(-c3ccc(F)cc3)c2Cl)[nH]c1=O ; pEC50 = 4.76

Next:
Lab note: CCc1c(CC2CCCCC2)nc(SCc2n[nH]c(-c3ccc(F)c(F)c3)c2Cl)[nH]c1=O gave pEC50 of 5.83

###

- System: Human immunodeficiency virus 1
- Experiment Notes: Antiviral activity against HIV-1 IIIB infected in human C8166 cells
- Format: functional, organism-based
- Run Parameters: Human immunodeficiency virus 1, IIIB
Decide using EC50 alone. Strictly below 80 nM: 1. Equal to or above 80 nM: 0.

Below, 3 compounds whose answers are already recorded.
// query is_below(EC50, 80 nM) for COc1ccc(C(=O)CSc2nc(Cc3ccccc3)c(C(C)C)c(=O)[nH]2)cc1 ?
// result 1

// query Say whether its EC50 is strictly beneath 80 nM. Entry: Cc1c(Cc2c(Cl)cccc2Cl)nc(SCC(=O)Nc2ccc(Br)cc2)[nH]c1=O
// result 0

// query Please indicate whether the reported EC50 of CCc1c(Cc2ccccc2)nc(SCC(=O)c2ccc(F)cc2)[nH]c1=O is strictly below 80 nM.
// result 1

New cases:
// query Is EC50 strictly under 80 nM for the entry CCc1c(Cc2ccccc2)nc(SCC(=O)c2ccc(OC)cc2)[nH]c1=O ?
// result 1

// query Below 80 nM on EC50? Entry Cc1c(Cc2ccccc2)nc(SCC(=O)c2ccc(F)cc2)[nH]c1=O
// result 0

// query Is it true that EC50 reported for Cc1c(Cc2c(Cl)cccc2Cl)nc(SCC(=O)Nc2ccc(F)c(F)c2)[nH]c1=O is less than 80 nM?
// result 0

// query In the record for Cc1c(Cc2c(Cl)cccc2Cl)nc(SCC(=O)Nc2ccc([N+](=O)[O-])cc2)[nH]c1=O , is EC50 less than 80 nM?
// result 0

// query Does the reported EC50 of COc1ccc(C(=O)CSc2nc(Cc3ccccc3)c(C)c(=O)[nH]2)cc1 stay below 80 nM?
// result 0

// query Dear colleague, could you confirm whether EC50 of Cc1c(Cc2c(Cl)cccc2Cl)nc(SCC(=O)Nc2ccc(Cl)cc2)[nH]c1=O falls below 80 nM? Thanks.
// result 0

###

- Tested on: Influenza A virus
- Experiment Notes: Antiviral activity against Influenza A virus A/H2N2 infected in dog MDCK cells reduction in viral replication incubated for 3 days by MTS assay
- Type: functional, organism-based
- Run Parameters: 72 h
Readout Type: EC50 (µM)
Answers are plain numbers, in µM.

The value of EC50 measured for the compound COc1ccc(NC(=O)CSc2nc(Cc3cccc4ccccc34)c(C)c(=O)[nH]2)cc1 turned out to be 9.7

###

- Experiment Notes: Inhibition of HIV-1 Reverse transcriptase G190S mutant
- Design: species or system Human immunodeficiency virus 1
Readout Type: IC50 (pM)
Give bare numbers, in pM.

IC50 measured on Cc1cc(/C=C/C#N)cc(C)c1Nc1ncnc(Nc2ccc(C#N)cc2)n1 = 100

###

- Experiment Notes: Cytotoxicity against dog MDCK cells assessed as reduction in cell viability measured for 3 days by MTT assay
- Type: toxicity, cell-based, Canis lupus familiaris
- Run Parameters: time 3 day
Readout Type: CC50 at 72 h

Data point: COc1ccc(NC(=O)CSc2nc(Cc3cccc4ccccc34)c(C)c(=O)[nH]2)cc1 ; CC50 at 72 h = > 224 µM

###

- Experiment Notes: Cytotoxicity against African green monkey Vero cells
- Type: toxicity, cell-based
- Run Parameters: chlorocebus sabaeus
Readout Type: CC50

GET /value?item= CCc1c(CC2CCCCC2)nc(SCc2n[nH]c(-c3ccc(F)c(F)c3)c2Cl)[nH]c1=O &field=CC50 returns > 200 µM

Shifting focus to the compound that follows.
The measured CC50 associated with CCc1c(CC2CCCCC2)nc(SCc2n[nH]c(-c3ccc(F)cc3)c2Cl)[nH]c1=O reads > 200 µM
